Quick record: MIC, Escherichia coli ATCC25922.

[
  {
    "MOLECULE": "CCCCCCOC(=O)[C@@H](C)O [Embodiment 3-1, R-(−)-lactate hexyl ester]",
    "MIC (µg/mL)": 1.95
  },
  {
    "MOLECULE": "CCCCCOC(=O)C[C@@H](C)O [Embodiment 2-5, R-(−)-3-hydroxybutyrate pentyl ester]",
    "MIC (µg/mL)": 3.91
  },
  {
    "MOLECULE": "CCCCCCCOC(=O)[C@@H](C)O [Embodiment 3-3, R-(−)-lactate heptyl ester]",
    "MIC (µg/mL)": 28.6
  },
  {
    "MOLECULE": "COC(=O)C[C@@H](C)O [Embodiment 2-1, R-(−)-3-hydroxybutyric methyl ester]",
    "MIC (µg/mL)": 62.5
  },
  {
    "MOLECULE": "CCCCCCCCOC(=O)C[C@@H](C)O [Embodiment 2-8, R-(−)-3-hydroxybutyrate octyl ester]",
    "MIC (µg/mL)": 31.2
  },
  {
    "MOLECULE": "CCCCCCOC(=O)C[C@@H](C)O [Embodiment 2-6, R-(−)-3-hydroxybutyrate hexyl ester]",
    "MIC (µg/mL)": 1.95
  },
  {
    "MOLECULE": "CCOC(=O)[C@@H](C)O [Embodiment 3-2, R-(−)-lactate ethyl ester]",
    "MIC (µg/mL)": 35.5
  },
  {
    "MOLECULE": "CCOC(=O)C[C@@H](C)O [Embodiment 2-2, R-(−)-3-hydroxybutyrate ethyl ester]",
    "MIC (µg/mL)": 31.2
  },
  {
    "MOLECULE": "CCCCCCCOC(=O)C[C@@H](C)O [Embodiment 2-7, R-(−)-3-hydroxybutyrate heptyl ester]",
    "MIC (µg/mL)": 31.2
  },
  {
    "MOLECULE": "CCCOC(=O)C[C@@H](C)O [Embodiment 2-3, R-(−)-3-hydroxybutyrate propyl ester]",
    "MIC (µg/mL)": 15.6
  },
  {
    "MOLECULE": "CCCCOC(=O)C[C@@H](C)O [Embodiment 2-4, R-(−)-3-hydroxybutyrate butyl ester]",
    "MIC (µg/mL)": 7.81
  }
]
